Reported Per Cent Survival with 3.2 μM mitoxantrone values follow for various compounds
System: S1-M1-3.2 cells
Settings: S1-M1-3.2 cells, drug 20 μM
Numbers only here, please. The scale is Per Cent.

COc1ccc(CCN(C)CCCC(C#N)(c2ccc(OC)c(OC)c2)C(C)C)cc1OC (centres unmarked) [Verapamil, reference compound] :: 93
COc1ccc2c3c4n(c2c1)[C@@H](C=C(C)C)OOC(C)(C)C[C@@H]4N1C(=O)[C@@H]2CCCN2C(=O)[C@]1(O)[C@H]3OCC=C(C)C :: 35
COc1ccc2c3c([nH]c2c1)[C@H](C=C(C)C)N1C(=O)[C@@H]2CCCN2C(=O)[C@@H]1C3 :: 17
COc1ccc(C(C#N)(CCCCCN2CCc3cc(OC)c(OC)cc3C2)Sc2ccc(C)cc2)cc1OC (centres unmarked) [reference compound] :: 21

Attention now turns to another entry.
query: Lab note: need Per Cent Survival with 3.2 μM mitoxantrone for COc1ccc2c3c(n(CC=C(C)C)c2c1)[C@H](C=C(C)C)N1C(=O)[C@@H]2CCCN2C(=O)[C@]1(O)[C@H]3O on S1-M1-3.2 cells, anyone have it?
result: 29

###

// reported Toxicity (>20%) per item
System: S1-M1-3.2 cells
Conditions: compound alone; concentration that causes greater than 20% cell death of S1-M1-3.2 cells

NCCC[C@H]1c2[nH]c3ccccc3c2C[C@H]2C(=O)N3CCC[C@H]3C(=O)N21 [Example 29b] :: >80 µM
CCCC(=O)NCCC[C@H]1c2[nH]c3ccccc3c2C[C@H]2C(=O)N3CCC[C@H]3C(=O)N21 :: >80 µM

Note: attention shifts to another entry.
query: Fill in: Toxicity (>20%) of C[C@H]1c2[nH]c3ccccc3c2C[C@H]2C(=O)N3CCC[C@H]3C(=O)N21 is ___
result: >80.0 µM
